Test system: Tloop (representing duplex DNA)
Assay: FRET assay, Tloop duplex DNA
Type: binding
Settings: compound at 1 μM, 60 mM potassium cacodylate buffer pH 7.4
Rule: ΔTm Tloop below 0.6 °C gives criterion met, anything at or above gives criterion not met.

1. CN1CCN(CCNc2cc3c4c(ccc5c4c2C(=O)N(CCCN2CCOCC2)C5=O)C(=O)N(CCCN2CCOCC2)C3=O)CC1 [Compound 4b]	criterion met
2. O=C1c2ccc3c4c(c(NCC5CCCO5)cc(c24)C(=O)N1CCCN1CCOCC1)C(=O)N(CCCN1CCOCC1)C3=O (centres unmarked) [Compound 4h]	criterion met
3. O=C1c2ccc3c4c(c(NCCc5ccccn5)cc(c24)C(=O)N1CCCN1CCOCC1)C(=O)N(CCCN1CCOCC1)C3=O [Compound 4d]	criterion met
4. CCN(CC)CCNc1cc2c3c(ccc4c3c1C(=O)N(CCCN1CCOCC1)C4=O)C(=O)N(CCCN1CCOCC1)C2=O [Compound 4i]	criterion met
5. O=C1c2ccc3c4c(c(NCCCCN5CCCC5)cc(c24)C(=O)N1CCCN1CCOCC1)C(=O)N(CCCN1CCOCC1)C3=O [Compound 4e]	criterion met
6. O=C1c2ccc3c4c(c(NCCN5CCOCC5)cc(c24)C(=O)N1CCCN1CCOCC1)C(=O)N(CCCN1CCOCC1)C3=O [Compound 4g]	criterion not met
7. O=C1c2ccc3c4c(c(NCCc5ccc(O)cc5)cc(c24)C(=O)N1CCCN1CCOCC1)C(=O)N(CCCN1CCOCC1)C3=O [Compound 4j]	criterion met
8. CN1CCN(CCCNc2cc3c4c(ccc5c4c2C(=O)N(CCCN2CCOCC2)C5=O)C(=O)N(CCCN2CCOCC2)C3=O)CC1 [Compound 4a]	criterion not met
9. CN1CCN(CCCNc2cc3c4c(c(NCCCN5CCN(C)CC5)cc5c4c2C(=O)N(CCCN2CCOCC2)C5=O)C(=O)N(CCCN2CCOCC2)C3=O)CC1 [MM41, reference compound]	criterion not met
